The following molecules are listed with their measured IC50 values.
Test system: HL-60 cells
Assay: Cell viability assay (CellTiter-Glo) in HL-60 cells
Type: cell-based
Conditions: Homo sapiens, 72 h, HL-60, APL, 3 days
Kindly provide the numeric value in nM only, without the unit symbol.

O=C1CCC(N2C(=O)c3ccc(NCCCCCC(=O)N4CCC(n5cc(-c6cnc7cccc(-c8cc(F)c(CN9CCOCC9)c(F)c8)c7n6)cn5)CC4)cc3C2=O)C(=O)N1 (stereo not drawn) | 2.54

Below: the item to evaluate.
Please report the recorded IC50 for CS(=O)(=O)c1ccc(-c2cccc3nc(Nc4ccc(N5CCN(CC(=O)NCCCCCCCCNc6ccc7c(c6)C(=O)N(C6CCC(=O)NC6=O)C7=O)CC5)cc4)nn23)cc1 (stereo not drawn) .
19.2

###

Recorded pIC50, one value per entry.
Test system: RS4;11 cells
Assay: Cell viability assay (CellTiter-Glo) in RS4;11 cells
Assay type: cell-based
Conditions: Homo sapiens, 72 h; RS4;11 ALL cells treated for three days; read-out: cell viability inhibition IC50
pIC50: −log10 of the molar value.

Consider the reported pIC50 for these compounds:
Cc1cnc(Nc2ccc(N3CCN(CC(=O)NCCCCCCNc4cccc5c4C(=O)N(C4CCC(=O)NC4=O)C5=O)CC3)cc2)nc1Nc1cccc(S(=O)(=O)NC(C)(C)C)c1 (stereo not drawn) [JA-094] | > 7.00
Cc1cnc(Nc2ccc(N3CCN(CC(=O)NCCOCCOCCOCCOCCOCCNc4cccc5c4C(=O)N(C4CCC(=O)NC4=O)C5=O)CC3)cc2)nc1Nc1cccc(S(=O)(=O)NC(C)(C)C)c1 (stereo not drawn) [JA-224] | > 7.00

Okay, next one:
Entry O=C1CCC(N2C(=O)c3ccc(NCCCCCCCC(=O)N4CCC(n5cc(-c6cnc7cccc(-c8cc(F)c(CN9CCOCC9)c(F)c8)c7n6)cn5)CC4)cc3C2=O)C(=O)N1 (stereo not drawn) [JA-187] has what pIC50?
> 7.00

###

A collection of compounds and their measured IC50
System: AMO-1 cells
Experiment: Cell viability assay (CellTiter-Glo) in AMO-1 cells
Assay type: cell-based
Settings: Homo sapiens, AMO1, 72 h, AMO-1, Multiple Myeloma, 3 days
Report as a plain number; the unit µM is understood.

// known answers, use as guide
O=C1CCC(N2C(=O)c3ccc(NCCCCCC(=O)N4CCC(n5cc(-c6cnc7cccc(-c8cc(F)c(CN9CCOCC9)c(F)c8)c7n6)cn5)CC4)cc3C2=O)C(=O)N1 (stereo not drawn) | 0.612
CS(=O)(=O)c1ccc(-c2cccc3nc(Nc4ccc(N5CCN(CC(=O)NCCCCCCCCNc6ccc7c(c6)C(=O)N(C6CCC(=O)NC6=O)C7=O)CC5)cc4)nn23)cc1 (stereo not drawn) | 0.722

--- query ---
Looking for the measured IC50 of Cc1cnc(Nc2ccc(N3CCN(C)CC3)cc2)nc1Nc1cccc(S(=O)(=O)NC(C)(C)C)c1 [TG101209, reference compound] , can you help?
4.78

###

Test system: RS4;11 cells
Experiment: Cell viability assay (CellTiter-Glo) in RS4;11 cells
Assay type: cell-based
Conditions: Homo sapiens, 72 h; RS4;11 ALL cells treated for three days; read-out: cell viability inhibition IC50
Method: Specific exemplary heterobifunctional compounds were first characterized using cell viability assays. RS4;11 ALL cells were treated with bifunctional degraders for three days. The IC50 values ranged from 2 nM to over 10 uM. MV4;11, RS4;11, Kasumi-1, HEL and other cells were treated with NVP-BSK805, TG101209 or selected degraders for 3 days at indicated concentrations following a 3-fold serial dilution. […]
pIC50: −log10 of the molar value.
parameter.measured: pIC50

Here is how some compounds turned out for pIC50.
Cc1cnc(Nc2ccc(N3CCN(CC(=O)NCCCCCNc4cccc5c4C(=O)N(C4CCC(=O)NC4=O)C5=O)CC3)cc2)nc1Nc1cccc(S(=O)(=O)NC(C)(C)C)c1 (stereo not drawn) | > 7.00
O=C1CCC(N2C(=O)c3ccc(NCCCCC(=O)N4CCC(n5cc(-c6cnc7cccc(-c8cc(F)c(CN9CCOCC9)c(F)c8)c7n6)cn5)CC4)cc3C2=O)C(=O)N1 (stereo not drawn) | > 7.00

Then this compound:
Which pIC50 value is on record for CS(=O)(=O)c1ccc(-c2cccc3nc(Nc4ccc(N5CCN(C(=O)CCCCCNc6ccc7c(c6)C(=O)N(C6CCC(=O)NC6=O)C7=O)CC5)cc4)nn23)cc1 (stereo not drawn) ?
> 7.00

From: patent US20230093099A1
